- experiment_notes: self-splicing fitness, log relative to wild type (ln ratio); higher = more splicing; Tetrahymena group I intron in knt gene, E. coli kanamycin selection, DiMSum; sequences stand for … in CUCUCU…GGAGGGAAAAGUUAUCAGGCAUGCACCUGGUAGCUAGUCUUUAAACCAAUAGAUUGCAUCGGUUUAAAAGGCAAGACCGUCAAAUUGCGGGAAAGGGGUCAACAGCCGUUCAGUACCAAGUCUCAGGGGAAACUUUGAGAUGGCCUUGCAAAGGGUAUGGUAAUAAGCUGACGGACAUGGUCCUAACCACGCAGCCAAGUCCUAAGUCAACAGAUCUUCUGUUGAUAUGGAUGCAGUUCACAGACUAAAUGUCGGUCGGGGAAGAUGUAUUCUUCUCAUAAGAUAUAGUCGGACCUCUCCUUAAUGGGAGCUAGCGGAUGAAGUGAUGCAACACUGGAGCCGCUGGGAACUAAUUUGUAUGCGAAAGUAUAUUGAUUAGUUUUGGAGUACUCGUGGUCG;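 further: selection with 25 µg/mL kanamycin versus none on LB agar overnight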
- details: 37 °C
measurement_kind: self-splicing fitness (ln)

sequence_string=GCCUAGCAAUAUUACGCGAG quantitative_readout=-2.29
sequence_string=CGUCAGCAAUAUUACGCUCC quantitative_readout=-0.786
sequence_string=CCGGAGCAAUAUUACGUGGA quantitative_readout=-2.16
sequence_string=GAAAAGCAAUAUUACGUCCC quantitative_readout=0.0916
sequence_string=ACCCAGCAAUAUUACGUAGG quantitative_readout=-0.48
sequence_string=CGUUAGCAAUAUUACGCAUU quantitative_readout=-1.29
sequence_string=GCUUAGCAAUAUUACGGGGU quantitative_readout=-2.55
sequence_string=GUCAAGCAAUAUUACGACGG quantitative_readout=-1.71
sequence_string=GCUGAGCAAUAUUACGAUUC quantitative_readout=-0.665
sequence_string=AUCCAGCAAUAUUACGGUAU quantitative_readout=-1.19
sequence_string=UGAUAGCAAUAUUACGUCGG quantitative_readout=-0.72
sequence_string=GCCUAGCAAUAUUACGCUGU quantitative_readout=0.254
sequence_string=GGCGAGCAAUAUUACGCCGG quantitative_readout=-0.739
sequence_string=AGAUAGCAAUAUUACGGUGA quantitative_readout=-0.858
sequence_string=CUCUAGCAAUAUUACGUGUA quantitative_readout=-4.02
sequence_string=CGUCAGCAAUAUUACGAACG quantitative_readout=-1.32

---

- experiment_notes: self-splicing fitness, log relative to wild type (ln ratio); higher = more splicing; Tetrahymena group I intron in knt gene, E. coli kanamycin selection, DiMSum; sequences stand for … in CUCUCU…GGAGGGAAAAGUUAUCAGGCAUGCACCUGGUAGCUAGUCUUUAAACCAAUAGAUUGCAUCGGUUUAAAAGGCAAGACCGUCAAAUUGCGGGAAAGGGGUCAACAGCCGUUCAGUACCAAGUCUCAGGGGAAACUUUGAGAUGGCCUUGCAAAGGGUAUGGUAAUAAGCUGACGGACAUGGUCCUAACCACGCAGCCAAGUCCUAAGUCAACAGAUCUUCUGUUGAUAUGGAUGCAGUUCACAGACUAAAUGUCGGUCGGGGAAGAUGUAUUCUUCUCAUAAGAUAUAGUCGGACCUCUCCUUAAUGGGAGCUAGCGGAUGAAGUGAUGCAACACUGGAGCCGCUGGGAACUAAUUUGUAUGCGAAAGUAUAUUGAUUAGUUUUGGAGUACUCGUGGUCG
- details: 30 °C
Collected self-splicing fitness (ln) values appear next to each entry.
measurement_kind: self-splicing fitness (ln)

sequence_string=AUCGAGCAAUAUUACGAUCG quantitative_readout=-2.9
sequence_string=UAAUAGCAAUAUUACGCAUU quantitative_readout=-2.83
sequence_string=UCCUAGCAAUAUUACGACUA quantitative_readout=-1.23
sequence_string=AGAUAGCAAUAUUACGGUUA quantitative_readout=-0.766
sequence_string=UGUGAGCAAUAUUACGCGCG quantitative_readout=-1.13
sequence_string=CACAAGCAAUAUUACGUAUG quantitative_readout=-2.55
sequence_string=AAAAAGCAAUAUUACGAGGC quantitative_readout=-4.09
sequence_string=ACACAGCAAUAUUACGCUCG quantitative_readout=-0.365

---

- experiment_notes: self-splicing fitness, log relative to wild type (ln ratio); higher = more splicing; Tetrahymena group I intron in knt gene, E. coli kanamycin selection, DiMSum; sequences stand for … in CUCUCU…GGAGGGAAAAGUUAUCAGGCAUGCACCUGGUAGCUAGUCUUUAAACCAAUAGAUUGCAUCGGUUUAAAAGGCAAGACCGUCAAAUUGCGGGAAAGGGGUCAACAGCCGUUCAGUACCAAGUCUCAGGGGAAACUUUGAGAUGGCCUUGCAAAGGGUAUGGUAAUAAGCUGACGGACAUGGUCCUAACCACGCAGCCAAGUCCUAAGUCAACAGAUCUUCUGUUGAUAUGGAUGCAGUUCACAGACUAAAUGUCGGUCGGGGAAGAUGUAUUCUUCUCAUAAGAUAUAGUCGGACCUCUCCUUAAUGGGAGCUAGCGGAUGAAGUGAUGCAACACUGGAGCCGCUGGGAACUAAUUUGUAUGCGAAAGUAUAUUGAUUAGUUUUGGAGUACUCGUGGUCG
- details: 37 °C
Kindly return y if reported self-splicing fitness (ln) is no lower than 0.003; return n if it is lower.

sequence_string=GCUAAGCAAUAUUACGGGUG class_assignment=y
sequence_string=AUUGAGCAAUAUUACGAGCU class_assignment=n
sequence_string=ACCUAGCAAUAUUACGCUGA class_assignment=n
sequence_string=UGCUAGCAAUAUUACGGGGA class_assignment=y
sequence_string=GAGAAGCAAUAUUACGGAUG class_assignment=n
sequence_string=GGGUAGCAAUAUUACGCGGG class_assignment=n
sequence_string=UGUCAGCAAUAUUACGUGUA class_assignment=y
sequence_string=CCGUAGCAAUAUUACGAGGA class_assignment=n
sequence_string=CAUAAGCAAUAUUACGGCAA class_assignment=n
sequence_string=AUGAAGCAAUAUUACGCGAG class_assignment=n
sequence_string=GAGCAGCAAUAUUACGAGGU class_assignment=n
sequence_string=UUGAAGCAAUAUUACGAUCA class_assignment=n
sequence_string=CCGUAGCAAUAUUACGACGG class_assignment=n
sequence_string=GUGCAGCAAUAUUACGCUUA class_assignment=y
sequence_string=CUCGAGCAAUAUUACGAUGA class_assignment=n
sequence_string=GGGUAGCAAUAUUACGGCGA class_assignment=y

---

- experiment_notes: self-splicing fitness, log relative to wild type (ln ratio); higher = more splicing; Tetrahymena group I intron in knt gene, E. coli kanamycin selection, DiMSum; sequences stand for … in CUCUCU…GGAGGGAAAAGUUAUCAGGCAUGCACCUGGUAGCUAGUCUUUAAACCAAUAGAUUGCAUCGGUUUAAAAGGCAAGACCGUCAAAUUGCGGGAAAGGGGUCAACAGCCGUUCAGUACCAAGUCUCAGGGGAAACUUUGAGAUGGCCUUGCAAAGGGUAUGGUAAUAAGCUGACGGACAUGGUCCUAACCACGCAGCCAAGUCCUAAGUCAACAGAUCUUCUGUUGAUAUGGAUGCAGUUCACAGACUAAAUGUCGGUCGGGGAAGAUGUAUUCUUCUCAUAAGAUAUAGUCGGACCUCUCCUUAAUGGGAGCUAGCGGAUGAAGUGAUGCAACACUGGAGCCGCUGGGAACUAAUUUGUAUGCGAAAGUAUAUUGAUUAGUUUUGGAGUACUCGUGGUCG
- details: 30 °C
measurement_kind: self-splicing fitness (ln)

sequence_string=GUCGAGCAAUAUUACGCGGA measurement_kind="self-splicing fitness (ln)" result=-3.08
sequence_string=UACAAGCAAUAUUACGAUUC measurement_kind="self-splicing fitness (ln)" result=-3.23
sequence_string=GAGGAGCAAUAUUACGGUUA measurement_kind="self-splicing fitness (ln)" result=-2.45
sequence_string=UUAAAGCAAUAUUACGGGGA measurement_kind="self-splicing fitness (ln)" result=-1.02
sequence_string=UGCAAGCAAUAUUACGGUGG measurement_kind="self-splicing fitness (ln)" result=-2.3
sequence_string=CGCUAGCAAUAUUACGUAGA measurement_kind="self-splicing fitness (ln)" result=-2.69
sequence_string=UUGGAGCAAUAUUACGUAGA measurement_kind="self-splicing fitness (ln)" result=-3.22
sequence_string=GCCCAGCAAUAUUACGACCU measurement_kind="self-splicing fitness (ln)" result=-1.07
sequence_string=AGCCAGCAAUAUUACGAGAC measurement_kind="self-splicing fitness (ln)" result=-3.57
sequence_string=CUGAAGCAAUAUUACGAGAA measurement_kind="self-splicing fitness (ln)" result=-3.29
sequence_string=CUCCAGCAAUAUUACGUUUA measurement_kind="self-splicing fitness (ln)" result=-3.31
sequence_string=AGCUAGCAAUAUUACGAGGA measurement_kind="self-splicing fitness (ln)" result=-3.9
sequence_string=GGAGAGCAAUAUUACGUCCG measurement_kind="self-splicing fitness (ln)" result=-1.5
sequence_string=GGUAAGCAAUAUUACGAAGC measurement_kind="self-splicing fitness (ln)" result=-3.07
sequence_string=UUUCAGCAAUAUUACGUCAU measurement_kind="self-splicing fitness (ln)" result=-3.32
sequence_string=CGUCAGCAAUAUUACGGGGU measurement_kind="self-splicing fitness (ln)" result=-3.29
sequence_string=GAUUAGCAAUAUUACGAUCU measurement_kind="self-splicing fitness (ln)" result=-0.776
